So I've got a bunch of compounds here, and I need their pIC50 values.
Biological target: human PDE10A (UniProt Q9Y233)
Sequence (Q9Y233 290-1055 limits assumed): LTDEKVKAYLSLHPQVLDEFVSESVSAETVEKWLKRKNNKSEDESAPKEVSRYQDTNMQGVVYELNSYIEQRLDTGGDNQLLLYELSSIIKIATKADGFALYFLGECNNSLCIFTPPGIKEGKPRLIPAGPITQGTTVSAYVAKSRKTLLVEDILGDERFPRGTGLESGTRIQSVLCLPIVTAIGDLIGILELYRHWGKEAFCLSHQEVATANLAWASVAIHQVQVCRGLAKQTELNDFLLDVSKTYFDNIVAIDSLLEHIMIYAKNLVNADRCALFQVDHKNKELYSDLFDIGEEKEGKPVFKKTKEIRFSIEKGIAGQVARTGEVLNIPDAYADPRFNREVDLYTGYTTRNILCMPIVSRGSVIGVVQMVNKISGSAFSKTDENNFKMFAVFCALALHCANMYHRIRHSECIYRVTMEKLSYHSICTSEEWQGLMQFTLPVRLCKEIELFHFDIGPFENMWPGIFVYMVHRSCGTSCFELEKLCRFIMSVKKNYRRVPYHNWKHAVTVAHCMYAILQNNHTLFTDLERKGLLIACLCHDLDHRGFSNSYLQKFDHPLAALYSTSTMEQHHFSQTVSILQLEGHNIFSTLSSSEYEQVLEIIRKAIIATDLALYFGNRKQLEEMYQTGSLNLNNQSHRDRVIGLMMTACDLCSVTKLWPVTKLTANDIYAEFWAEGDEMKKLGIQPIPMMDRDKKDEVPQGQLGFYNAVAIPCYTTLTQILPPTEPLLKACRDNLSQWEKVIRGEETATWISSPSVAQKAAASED
Assay: Measurement of PDE activity (recombinant enzyme, HTRF cAMP kit)
Assay type: biochemical
Conditions: Table 1, substrate 20 nM for PDE10, 60 minutes at 29 C, read-out: IC50
pIC50: −log10 of the molar value. Where a name gives a salt, the structure may show the parent alone.

Bench note: what pIC50 did Cn1cc(-c2cccc3cnn(CCc4ccc5ccccc5n4)c(=O)c23)cn1 show? > 7.00

Bench note: what pIC50 did CCc1ccc(CCn2ccc3scc(-c4ccncc4)c3c2=O)nc1 [Example 209, hydrochloride] show? 6.30 to 6.70

Bench note: what pIC50 did O=c1c2c(-c3ccccc3F)cccc2cnn1CCc1ccc2ccccc2n1 show? > 7.00

# batch: return pIC50 for each of the 7 compounds below
1. O=c1c2c(-c3ccncc3)csc2cnn1CCc1cn2ccc(F)cc2n1
2. O=c1c2c(-c3cccs3)csc2cnn1CCc1ccc2ccccc2n1
3. O=c1c2c(-c3ccncc3)csc2cnn1CCc1ccc2sccc2n1
4. O=c1c2c(N3CCOCC3)csc2ccn1C1CC1c1ccc2ccccc2n1 (stereo not drawn)
5. O=c1c2c(-c3ccncc3)csc2ccn1C1CC1c1ccc2cc(F)ccc2n1 (stereo not drawn)
6. O=c1c2c(N3CC[C@H](O)C3)cccc2ccn1C1CC1c1ccc2ccccc2n1 (stereo partly drawn)
7. CC(=O)N1CCC(Nc2cccc3cnn(CCc4cn5ccccc5n4)c(=O)c23)CC1

1: > 7.00; 2: 6.70 to 7.00; 3: > 7.00; 4: > 7.00; 5: > 7.00; 6: 6.30 to 6.70; 7: 6.30 to 6.70

# batch: return pIC50 for each of the 2 compounds below
1. Cn1cc(-c2nn(CCc3cn4ccccc4n3)c(=O)c3c(-c4ccncc4)csc23)cn1
2. COc1ccc(-c2cccc3ccn(C4CC4c4ccc5ccccc5n4)c(=O)c23)cc1 (single isomer, unassigned)

1. > 7.00
2. > 7.00
